- subject.of.test: T1, PP2A-B55, Q7ZX64
- T1 chain: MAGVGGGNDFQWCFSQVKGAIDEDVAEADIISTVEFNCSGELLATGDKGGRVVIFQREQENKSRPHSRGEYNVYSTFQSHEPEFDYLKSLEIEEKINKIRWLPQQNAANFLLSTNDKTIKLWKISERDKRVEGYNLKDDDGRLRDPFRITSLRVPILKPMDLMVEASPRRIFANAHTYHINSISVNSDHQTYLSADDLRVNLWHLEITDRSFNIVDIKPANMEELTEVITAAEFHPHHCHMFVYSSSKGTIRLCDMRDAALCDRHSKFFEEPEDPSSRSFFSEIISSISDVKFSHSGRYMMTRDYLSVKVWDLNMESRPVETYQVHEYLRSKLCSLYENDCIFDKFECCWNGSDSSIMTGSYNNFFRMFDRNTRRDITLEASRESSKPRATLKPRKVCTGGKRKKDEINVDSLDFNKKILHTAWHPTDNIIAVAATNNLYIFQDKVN
- experiment.summary: His pull-down, western blot quantification
- settings: chain shown with the change; Arpp19 thio-phosphorylated at S67/S71 (ATPγS and recombinant Gwl kinase); parent: est. 1.0; read off a plot
quantity.measured: response (AU)

Would you please look over these solved cases?
6His-Xenopus Arpp19 (isoform 1), wild type Y68A (protein) MSGENQETKAQEESSALEQKEIDDKVVSPEKSEEIKLKARYPNLGPKPGGSDFLRKRLQKGVSKKQKAFDSGDYNMAKAKMKNKQLPTAASDKTEVTGDHIPTPQDLPQRKPSLVASKLAG    0.18
6His-Xenopus Arpp19 (isoform 1), wild type D73A (protein) MSGENQETKAQEESSALEQKEIDDKVVSPEKSEEIKLKARYPNLGPKPGGSDFLRKRLQKGVSKKQKYFDSGAYNMAKAKMKNKQLPTAASDKTEVTGDHIPTPQDLPQRKPSLVASKLAG    0.15
6His-Xenopus Arpp19 (isoform 1), wild type Y74A (protein) MSGENQETKAQEESSALEQKEIDDKVVSPEKSEEIKLKARYPNLGPKPGGSDFLRKRLQKGVSKKQKYFDSGDANMAKAKMKNKQLPTAASDKTEVTGDHIPTPQDLPQRKPSLVASKLAG    0.11
6His-Xenopus Arpp19 (isoform 1), wild type D70A (protein) MSGENQETKAQEESSALEQKEIDDKVVSPEKSEEIKLKARYPNLGPKPGGSDFLRKRLQKGVSKKQKYFASGDYNMAKAKMKNKQLPTAASDKTEVTGDHIPTPQDLPQRKPSLVASKLAG    0.04

(I) 6His-Xenopus Arpp19 (isoform 1), wild type F69A (protein) MSGENQETKAQEESSALEQKEIDDKVVSPEKSEEIKLKARYPNLGPKPGGSDFLRKRLQKGVSKKQKYADSGDYNMAKAKMKNKQLPTAASDKTEVTGDHIPTPQDLPQRKPSLVASKLAG
(II) 6His-Xenopus Arpp19 (isoform 1), wild type S71T (protein) MSGENQETKAQEESSALEQKEIDDKVVSPEKSEEIKLKARYPNLGPKPGGSDFLRKRLQKGVSKKQKYFDTGDYNMAKAKMKNKQLPTAASDKTEVTGDHIPTPQDLPQRKPSLVASKLAG
Exercise: # argmax over response for candidates I and II // output: label of the selected item
Solution: II
(II: 0.13 AU, I: 0.08 AU)

meta.source: paper PMC8196004
